system: iron superoxide dismutase A (FeSOD); assay: RT-qPCR mRNA expression of FeSOD; assay type: cell-based, Leishmania donovani; conditions: promastigotes, 24 hours
observation-type: FeSOD mRNA expression versus untreated

Ask | Form: Entry = CC(=O)N(O)CCCCCNC(=O)CCC(=O)N(O)CCCCCNC(=O)CCC(=O)N(O)CCCCCN [Deferoxamine, deferoxamine, reference compound] | System = iron superoxide dismutase A (FeSOD) | FeSOD mRNA expression versus untreated = ____
Reply | 5 fold
